All figures here come from ChEMBL document CHEMBL1129324.

// values below are reported IC50
Molecular target: Platelet-derived growth factor receptor (Mus musculus, UniProt P05622+P26618)
Experiment: Inhibitory activity against platelet-derived growth factor receptor tyrosine kinase in Swiss 3T3 cells

Answered examples (2):
compoundSmiles	testedSystem	testValue
Cc1cc2nc(CN(C)C)c(-c3ccccc3)nc2cc1C	Platelet-derived growth factor receptor (Mus musculus, UniProt P05622+P26618)	> 50 µM
c1coc(-c2cnc3ccccc3n2)c1	Platelet-derived growth factor receptor (Mus musculus, UniProt P05622+P26618)	> 100 µM

Kindly consider the entry below.
[ask] IC50 lookup needed for Cc1ccc(-c2cnc3ccccc3n2)s1 , thanks.
[reply] > 100 µM
